- target_desc: KCNQ2/3 channels (Homo sapiens, UniProt O43525+O43526)
- Construct: expressed in transfected cells
- Sequence (O43526 whole entry): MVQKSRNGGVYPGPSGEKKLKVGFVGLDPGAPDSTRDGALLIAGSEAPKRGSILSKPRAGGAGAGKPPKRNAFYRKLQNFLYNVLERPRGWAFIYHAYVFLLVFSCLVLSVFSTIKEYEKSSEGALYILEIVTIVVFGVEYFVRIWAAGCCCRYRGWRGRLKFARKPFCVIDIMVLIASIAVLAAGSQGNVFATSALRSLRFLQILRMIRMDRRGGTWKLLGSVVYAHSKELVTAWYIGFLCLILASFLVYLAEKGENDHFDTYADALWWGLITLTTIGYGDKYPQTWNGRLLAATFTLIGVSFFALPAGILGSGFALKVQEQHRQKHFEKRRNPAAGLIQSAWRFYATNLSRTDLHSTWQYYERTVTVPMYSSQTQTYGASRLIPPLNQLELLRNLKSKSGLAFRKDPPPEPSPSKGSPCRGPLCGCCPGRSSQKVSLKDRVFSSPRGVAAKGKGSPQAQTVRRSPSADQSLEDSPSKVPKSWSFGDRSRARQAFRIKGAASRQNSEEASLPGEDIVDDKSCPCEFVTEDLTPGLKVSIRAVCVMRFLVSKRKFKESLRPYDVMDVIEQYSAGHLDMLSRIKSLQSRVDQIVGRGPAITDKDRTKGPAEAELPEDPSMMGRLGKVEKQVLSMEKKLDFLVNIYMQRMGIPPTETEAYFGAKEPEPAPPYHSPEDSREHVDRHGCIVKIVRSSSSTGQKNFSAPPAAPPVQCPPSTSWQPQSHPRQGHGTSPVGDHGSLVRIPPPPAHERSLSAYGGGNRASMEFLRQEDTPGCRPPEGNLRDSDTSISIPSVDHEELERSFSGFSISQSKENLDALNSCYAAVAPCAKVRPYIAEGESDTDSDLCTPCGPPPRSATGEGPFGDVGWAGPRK
- Sequence (O43525 whole entry): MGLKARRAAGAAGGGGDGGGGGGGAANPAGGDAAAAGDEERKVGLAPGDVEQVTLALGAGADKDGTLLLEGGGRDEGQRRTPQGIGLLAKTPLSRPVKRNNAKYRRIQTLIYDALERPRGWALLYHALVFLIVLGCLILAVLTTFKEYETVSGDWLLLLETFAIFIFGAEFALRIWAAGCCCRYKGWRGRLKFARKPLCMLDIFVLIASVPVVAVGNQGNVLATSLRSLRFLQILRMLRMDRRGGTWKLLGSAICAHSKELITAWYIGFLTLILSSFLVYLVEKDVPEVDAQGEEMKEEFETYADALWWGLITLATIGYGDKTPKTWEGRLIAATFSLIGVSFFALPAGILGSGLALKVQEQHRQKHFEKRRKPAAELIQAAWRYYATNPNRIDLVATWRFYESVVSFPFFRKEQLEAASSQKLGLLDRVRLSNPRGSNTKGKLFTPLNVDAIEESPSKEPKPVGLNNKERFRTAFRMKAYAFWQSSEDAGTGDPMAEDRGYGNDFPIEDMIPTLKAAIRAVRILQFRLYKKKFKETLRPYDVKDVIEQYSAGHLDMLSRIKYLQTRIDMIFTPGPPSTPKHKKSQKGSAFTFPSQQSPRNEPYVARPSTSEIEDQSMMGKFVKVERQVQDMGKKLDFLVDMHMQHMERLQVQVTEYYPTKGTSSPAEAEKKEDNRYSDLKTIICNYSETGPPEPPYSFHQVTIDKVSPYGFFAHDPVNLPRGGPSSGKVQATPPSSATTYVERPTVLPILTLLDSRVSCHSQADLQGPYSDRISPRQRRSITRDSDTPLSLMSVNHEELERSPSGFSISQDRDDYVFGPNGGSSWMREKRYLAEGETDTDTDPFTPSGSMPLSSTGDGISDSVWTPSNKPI
- test_protocol: Fluorescence assay using a voltage sensitive dye (fluorimetry)
- Type: cell-based
- settings: CHO-K1, plateau effect relative to saturated retigabine (50 μM) = 100%; CHO-K1 cells expressing KCNQ2/3; negative values = antagonistic; read-out: Fluorimetry % efficacy (retigabine = 100%)
reported_property: Emax (%)

{"compound": "Cc1cc(N2CCOCC2)nc(C(C)(C)C)c1C(=O)NCc1cccc(F)c1", "Emax (%)": 196}
{"compound": "CCSc1nc(N2CCOCC2)cc(C)c1C(=O)NCCC(C)C(C)(C)C (stereo not shown)", "Emax (%)": 202}
{"compound": "COCCCc1nc(N2CCOCC2)cc(C)c1C(=O)NCCCC(C)(C)C", "Emax (%)": 204}
{"compound": "CCSc1nc(N2C3CCC2COC3)cc(C)c1C(=O)NCc1cccc(F)c1", "Emax (%)": 200}

====

- target_desc: KCNQ2/3 channels (Homo sapiens, UniProt O43525+O43526)
- Construct: expressed in transfected cells
- test_protocol: Fluorescence assay using a voltage sensitive dye (fluorimetry)
- Format: cell-based
- settings: CHO-K1 cells expressing KCNQ2/3; IC50 where % efficacy is negative; read-out: Fluorimetry EC50/IC50
reported_property: EC50 (µM)

{"compound": "CCSc1nc(N(C)C2CCCOC2)cc(C)c1C(=O)NCCCC(C)(C)C (centres unmarked)", "EC50 [µM]": 0.302}

(A) CCSc1nc(N2CCOCC2)cc(C)c1C(=O)NCc1cccc(F)c1
(B) CCSc1nc(N2CCOC(C)C2)cc(C)c1C(=O)NCCCC(C)(C)C (centres unmarked)
Ask: Record comparison, field EC50: mark the lower of A and B . Respond with the label that goes with your answer.
Reply: B

====

- target_desc: KCNQ2/3 channels (Homo sapiens, UniProt O43525+O43526)
- Construct: expressed in transfected cells
- test_protocol: Fluorescence assay using a voltage sensitive dye (fluorimetry)
- Type: cell-based
- settings: CHO-K1, plateau effect relative to saturated retigabine (50 μM) = 100%; CHO-K1 cells expressing KCNQ2/3; negative values = antagonistic; read-out: Fluorimetry % efficacy (retigabine = 100%)
reported_property: Emax (%)

(A) CCSc1nc(N2CCOCC2)cc(C)c1C(=O)NCc1ccc(C(F)(F)F)cc1
(B) COc1nc(N2CCOC[C@H]2C)cc(C)c1C(=O)NCc1cccc(F)c1
Ask: Which record would sort first by descending Emax, A or B ? Write down the label attached to your selection.
Reply: B

====

- target_desc: KCNQ2/3 channels (Homo sapiens, UniProt O43525+O43526)
- Construct: expressed in transfected cells
- test_protocol: Fluorescence assay using a voltage sensitive dye (fluorimetry)
- Type: cell-based
- settings: CHO-K1 cells expressing KCNQ2/3; IC50 where % efficacy is negative; read-out: Fluorimetry EC50/IC50
reported_property: EC50 (nM)

(a) CCC(C)c1nc(N2CCOCC2)cc(C)c1C(=O)NCc1cccc(F)c1 (stereo not shown) [Example 216]
(b) CCN(C)c1nc(N2CCOCC2)cc(C)c1C(=O)NCc1ccc(F)c(F)c1 [Example 203]
Ask: Hi there! Just curious which has the higher EC50 between a and b . Pick one and reply with its label.
Reply: b

(P) CCSc1nc(N2CCOCC2)cc(C)c1C(=O)NCc1cccc(S(C)(=O)=O)c1 [Example 231]
(Q) CCSc1nc(N2Cc3ccccc3C2)cc(C)c1C(=O)NCc1cccc(F)c1 [Example 303]
(R) CCSc1nc(N2CCOCC2)cc(C)c1C(=O)NCc1ccc(C(F)(F)F)cc1F [Example 135]
(S) CCSc1nc(N2CCOCC2)cc(C)c1C(=O)NCCCc1ccccc1F [Example 129]
(T) CCNc1nc(N2CCOCC2)cc(C)c1C(=O)NCc1cccc(F)c1 [Example 20]
Ask: Rank order required: EC50, descending. Output spec: labels arranged per the requested ranking.
Reply: P, Q, T, S, R
(P: 10400 nM, Q: 1150 nM, T: 782 nM, S: 221 nM, R: 54 nM)

(I) Cc1cc(N2CCOC[C@H]2C)nc(C(C)C)c1C(=O)NCCCC(C)(C)C [Example 185]
(II) CCOc1nc(N2CCOCC2)cc(C)c1C(=O)NCc1ccc(Cl)cc1 [Example 166]
Ask: Hi there, can you help? I need to know whether I or II has lower measured EC50. Indicate which entry you chose by stating its label.
Reply: I
(I: 15 nM, II: 117 nM)

(I) CCSc1nc(N2CCOCC2)cc(C)c1C(=O)NCCCC(F)(F)F [Example 84]
(II) Cc1cc(N2CCOCC2)nc(C2CC2)c1C(=O)NCc1ccc(F)c(F)c1 [Example 332]
(III) Cc1cc(N2CCOCC2)nc(C(C)C)c1C(=O)NCc1cc(F)cc(F)c1 [Example 316]
Ask: Sort entries by EC50 from minimum to maximum value. Form entry: ranked labels (order as requested).
Reply: III, II, I

(1) CCSc1nc(N2CCOCC2)cc(C)c1C(=O)NCc1ccc(Cl)cc1 [Example 124]
(2) CCC(C)(C)c1nc(N2CCOCC2)cc(C)c1C(=O)NCCCC(C)(C)C [Example 279]
Ask: // compare measured EC50, left 1 , right 2 , return larger Mark your selection by writing its label.
Reply: 2
(2: 430 nM, 1: 82 nM)

(I) CCSc1nc(N2CCOCC2)cc(C)c1C(=O)NCC(O)CC(C)C (stereo not shown) [Example 228]
(II) CCSc1nc(N2CCOC(C(F)(F)F)C2)cc(C)c1C(=O)NCc1cccc(F)c1 (stereo not shown) [Example 260]
(III) CCSc1nc(N2CCOC[C@H]2C)cc(C)c1C(=O)NCc1ccc(F)c(F)c1 [Example 225]
(IV) CCSc1nc(N(C)C2CCOCC2)cc(C)c1C(=O)NCc1cccc(F)c1 [Example 258]
Ask: Could you please order the items by EC50, going from the lowest number to the highest? Submit the labels in the order that the ranking request calls for.
Reply: III, II, IV, I
(III: 71 nM, II: 149 nM, IV: 301 nM, I: 2450 nM)
